Data provenance is paper PMC10397247.

# Test System: T1, P2-AA-12HGe-S
# T1 chain: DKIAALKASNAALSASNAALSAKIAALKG
# Assay Info: two-hybrid library CCmax;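 note: natural log of median RNA to DNA barcode read ratio; higher means stronger binding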
# Condition Label: mean of both orientations
Measured Property: interaction score

A. DEIAALEAWNAALWAWNAALWAEIAALEG [P1-AA-12HGe-W]
B. DEIAALEASNAALSASNAALSAEIAALEG [P1-AA-12HGe-S]
C. DEIAALEATNAALTATNAALTAEIAALEG [P1-AA-12HGe-T]
D. DEIAALEAKNAALKAKNAALKAEIAALEG [P1-AA-12HGe-K]
### Prompt Order each entry by recorded interaction score, climbing from the minimum. Your answer should be the labels, listed in the requested order.
### Response B, C, A, D
(B: -1.39, C: -0.683, A: -0.243, D: 0.655)
